Values compiled from patent US9526785B2.

method_description: Tigecycline plasma PK and % F after intraduodenal (ID) injection in anesthetized rats
Assay type: in vivo, Sprague-Dawley Rats
condition_context: female, Sprague-Dawley, rat, plasma, 4.8 mg/kg, pH 3.5, ID, 400 mM CA (pH 3.5), 26 mM LLC, 4.8 mg/kg (RA851), parent Tigecycline peak only; read-out: Cmax, Mean
reported_metric: Cmax (ng/mL)
Field format: number, assumed ng/mL, no unit text.

Entry CN(C)c1cc(NC(=O)CNC(C)(C)C)c(O)c2c1C[C@H]1C[C@H]3[C@H](N(C)C)C(O)=C(C(N)=O)C(=O)[C@@]3(O)C(O)=C1C2=O [Tigecycline] has what Cmax?
790
